Source listed as PubChem BioAssay.

- assaySummary: PSAC antagonists in infected red cells, primary screen, cell-based, P. falciparum Indochina, OD700, 2 h (AID 1155);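 further: lysis reports solute entry through the parasite surface anion channel PSAC; channel blockers reduce lysis of infected cells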
- runConditions: P. falciparum Indochina infected erythrocytes, osmotic lysis OD700; higher = more signal, called active from +8 up or from −8 down
Each entry below carries its reported z-score.
Write the number on its own, no unit after it.

// below: answered compounds
C#CCN(CC=C(C)C)[C@H](CO)c1ccccc1 : -1.3
CN1C(=O)C2C=CC(C(O)c3ccc(-c4ccccc4)s3)N(N(c3ccccc3)c3ccccc3)C2C1=O (centres undefined) : 2.19
O=C1O[C@H](c2ccccc2)[C@H](c2ccccc2)N2[C@H]1[C@@H](C(=O)Nc1nc3ccccc3s1)[C@]1(C(=O)Nc3ccc(C#CCCO)cc31)[C@H]2c1ccc(OCCO)cc1 : 2.02
CCOC(=O)[C@H]1C/C=C/C[C@H](C(=O)OCC)C(=O)O[C@H]2[C@@H](OC)O[C@H](CO)[C@@H](OC(=O)Nc3ccc(C#N)cc3)[C@@H]2OC1=O : 2.33

Give recorded z-score. "O=C1C[C@]2(c3ccc([N+](=O)[O-])cc3)C(=O)N(CCN3CCOCC3)c3cc(CO)ccc3[C@H]2N1C1CCCCC1"
-0.837

Give recorded z-score. "Cc1ccc(S[C@]2(C(=O)NCCN3CCOCC3)CC(=O)N(Cc3ccccc3)[C@@H]2c2ccc(CO)cc2I)cc1"
0.37

Give recorded z-score. CN1C(=O)C2C=CC(C(O)C3=C[C@H]4C[C@@H](C3)C4(C)C)N(Nc3ccccc3)C2C1=O (some centres undefined)
0.69

Give recorded z-score. "CN(C)CCCCCCNC(=O)[C@@H]1C[C@@H]2C(=O)N[C@@H](CCCCN)C(=O)N2[C@@H]1c1cccc(OCCO)c1"
-0.644

Give recorded z-score. CN1C(=O)C2C=CC(C(O)c3ccc(I)cc3)N(N3CCCCC3)C2C1=O (centres undefined)
0.399

Give recorded z-score. "CCOC(=O)[C@H]1C/C=C/C[C@H](C(=O)OCC)C(=O)O[C@H]2[C@@H](OC)O[C@H](CO)[C@@H](OC(=O)Nc3cccc(F)c3)[C@@H]2OC1=O"
1.81

Give recorded z-score. "COC(=O)[C@@]1(Cc2ccccc2)[C@H]2c3cc(C(=O)N4CCCC4)n(Cc4cccc5ccccc45)c3C[C@H]2CN1C(=O)c1ccccc1"
1.43

Give recorded z-score. "COCC(=C=CC[C@H](O)c1ccccc1OCCO)C[C@H](O)c1cc(Cl)cc(Cl)c1O"
8.65

Give recorded z-score. "[N-]=[N+]=Nc1ccccc1C[C@@]1(C(=O)NCCN2CCOCC2)N=C(c2ccc(OCCCO)cc2)O[C@@H]1c1ccccc1"
24.3

Give recorded z-score. "C=CCOC(=O)[C@H]1[C@@H]2C(=O)O[C@@H](c3ccccc3)[C@@H](c3ccccc3)N2[C@@H](c2ccc(OCCOC(=O)[C@@H]3C[C@@H]4C(=O)N5CCC[C@H]5C(=O)N4[C@@H]3c3cccc(OCCO)c3)cc2)[C@]12C(=O)Nc1ccccc12"
1.16

----------
- System: Human papillomavirus type 1a protein E7 (residues 44-93)
- assaySummary: HPV1a E7 fragment binders on microarrays, primary screen, biochemical, small-molecule microarray, residues 44-93, 635 nm fluorescence (AID 1108);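 further: E7 fragment applied at 1 µg/mL in TBST for 1 h at 4 C; score combines spot fluorescence with its signal to noise ratio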
- runConditions: small-molecule microarray binding, fluorescence 635 nm; higher = more signal
valueKind: composite z-score

// below: answered molecules
COCCn1c(C(=O)N2CCCC2)cc2c1C[C@H]1CN(C(=O)c3ccccc3)[C@@](Cc3ccc(F)cc3)(C(=O)OC)[C@@H]21 : 1.43
COc1ccc([Si](C)(C)[C@H]2[C@H](CCO)O[C@@]3(C(=O)N(Cc4ccc(N5C(=O)COc6ccccc65)cc4)c4ccccc43)[C@@H]2C)cc1 : 0.49
C#CCNC(=O)[C@H](Cc1ccccc1)NC(=O)CCC(=O)O : -0.665
COC(=O)C(CC#Cc1ccc2c(c1)[C@]1(C(=O)N2)[C@H](C(=O)O)[C@H]2C(=O)O[C@H](c3ccccc3)[C@H](c3ccccc3)N2[C@@H]1c1ccc(O)cc1)C(=O)OC : 1.03
O=C1O[C@H](c2ccccc2)[C@H](c2ccccc2)N2[C@H]1[C@@H](C(=O)NC[C@H](O)c1ccccc1)[C@]1(C(=O)Nc3ccccc31)[C@H]2c1ccc(OCCO)cc1 : 1.38

Give recorded composite z-score. CC(CO)N1C(=O)[C@@H]2C3C(=O)OCCC/C=C\[C@H]3OC23C=CCN(c2ccc4ccccc4c2)C(=O)[C@@H]13 (some centres undefined)
-0.711

Give recorded composite z-score. CCCCCC1=C2CNC(CCC)(C(=O)OC)C=C2C(C)C1=O (centres undefined)
0.514

Give recorded composite z-score. N#Cc1ccc(NN2C(C(O)c3c(F)cccc3Cl)C=CC3C(=O)N(c4ccccc4)C(=O)C32)cc1 (centres undefined)
1.47
